- Test System: Cdk12/CycK (Homo sapiens)
- Construct: GST (TEV site) (N, cleaved yes)
- Sequence (Q9NYV4 714-1063): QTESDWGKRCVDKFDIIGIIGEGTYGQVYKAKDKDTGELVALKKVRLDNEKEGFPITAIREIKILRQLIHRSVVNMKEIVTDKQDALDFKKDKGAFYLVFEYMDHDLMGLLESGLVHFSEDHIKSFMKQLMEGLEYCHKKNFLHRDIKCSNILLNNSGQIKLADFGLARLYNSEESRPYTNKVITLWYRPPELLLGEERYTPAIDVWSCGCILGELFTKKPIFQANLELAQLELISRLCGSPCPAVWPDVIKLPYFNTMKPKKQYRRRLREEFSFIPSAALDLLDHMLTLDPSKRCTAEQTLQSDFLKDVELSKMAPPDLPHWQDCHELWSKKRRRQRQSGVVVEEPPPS
- Sequence (O75909 1-267 partner limits assumed): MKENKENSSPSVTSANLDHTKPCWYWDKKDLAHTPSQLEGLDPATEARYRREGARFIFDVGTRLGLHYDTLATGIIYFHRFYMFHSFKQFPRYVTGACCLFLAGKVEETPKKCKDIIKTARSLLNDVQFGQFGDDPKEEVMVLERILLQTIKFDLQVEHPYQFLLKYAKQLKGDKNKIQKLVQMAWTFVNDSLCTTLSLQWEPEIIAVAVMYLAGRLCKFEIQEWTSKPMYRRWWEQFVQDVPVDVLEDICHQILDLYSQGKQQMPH
- Protocol Text: radioactive in vitro kinase assay, Cdk12/CycK
- Measurement Conditions: 0.2 μM kinase, 0.2 mM ATP, 50 μM His-c-Myc, 20 min, sigmoidal fit
Readout Type: pIC50
API: returns pIC50 as number; meaning -log10 of concentration in mol/L.

// query What does the record list as pIC50 for CCN1CCN(Cc2ccc(Nc3ncc(F)c(-c4cc(F)c5nc(C)n(C(C)C)c5c4)n3)nc2)CC1 ?
// result 5.89

// query What does the record list as pIC50 for CN(C)C/C=C/C(=O)Nc1ccc(C(=O)Nc2cccc(Nc3ncc(Cl)c(-c4c[nH]c5ccccc45)n3)c2)cc1 ?
// result 7.06

// query What does the record list as pIC50 for CN(C)C/C=C/C(=O)Nc1ccc(C(=O)N2CCC[C@@H](Nc3ncc(Cl)c(-c4c[nH]c5ccccc45)n3)C2)cc1 ?
// result 6.76

// query What does the record list as pIC50 for COC[C@@H](C)NC1CCC(Nc2cc(-c3cccc(NCC4(C#N)CCOCC4)n3)c(Cl)cn2)CC1 (some centres unmarked) ?
// result 7.39

// query What does the record list as pIC50 for CN1CCN(c2ccc(Nc3ncc4cc5n(c4n3)C3(CCCCC3)CNC5=O)nc2)CC1 ?
// result 5.87

----------
- Test System: Cdk9/CycT1 (Homo sapiens, UniProt P50750)
- Construct: Full-length, human, WT Cdk9 (residues 1–372, UniProt P50750); CycT1: E. coli
- Sequence (P50750 whole entry, the tested form may be a part): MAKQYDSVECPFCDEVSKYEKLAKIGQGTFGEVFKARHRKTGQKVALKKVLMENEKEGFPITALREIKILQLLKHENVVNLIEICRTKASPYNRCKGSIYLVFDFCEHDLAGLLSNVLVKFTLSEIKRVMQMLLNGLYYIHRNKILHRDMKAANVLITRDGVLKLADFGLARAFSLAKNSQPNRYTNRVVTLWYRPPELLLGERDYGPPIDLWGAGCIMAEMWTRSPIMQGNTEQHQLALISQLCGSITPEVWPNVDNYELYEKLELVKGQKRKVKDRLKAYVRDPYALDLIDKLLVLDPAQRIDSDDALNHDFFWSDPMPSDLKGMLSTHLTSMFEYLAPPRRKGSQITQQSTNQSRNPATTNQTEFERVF
- Sequence (O60563 1-272 partner limits assumed): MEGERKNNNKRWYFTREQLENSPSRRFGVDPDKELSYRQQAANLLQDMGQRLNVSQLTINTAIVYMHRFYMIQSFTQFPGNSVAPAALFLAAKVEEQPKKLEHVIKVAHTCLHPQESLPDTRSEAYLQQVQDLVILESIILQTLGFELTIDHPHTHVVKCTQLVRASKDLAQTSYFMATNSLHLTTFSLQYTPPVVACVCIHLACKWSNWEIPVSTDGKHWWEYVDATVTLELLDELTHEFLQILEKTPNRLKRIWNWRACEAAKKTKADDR
- Protocol Text: SPR single-cycle kinetics, Cdk9/CycT1
- Measurement Conditions: 1:1 binding model
- Protocol: The protein kinases were immobilized on a CM5 chip using the amine-coupling method. […] The fully active and T-loop phosphorylated kinase preparations of Cdk12∗/CycK and Cdk13∗/CycK were obtained through coexpression with Cdk-activating kinase 1 (CAK1) from Saccharomyces cerevisiae. […] For comparison, we measured the affinity of NVP-2 for active kinases Cdk12∗/CycK and its proposed target Cdk9/CycT1 by SPR. SPR experiments were conducted on a Biacore 8K (Cytiva) device. […]
Readout Type: pKd
API: returns pKd as number; meaning -log10 of concentration in mol/L.

// query Param readout= pKd; system= Cdk9/CycT1 (Homo sapiens, UniProt P50750); entry= COC[C@@H](C)NC1CCC(Nc2cc(-c3cccc(NCC4(C#N)CCOCC4)n3)c(Cl)cn2)CC1 (stereo partly shown) ; returns value.
// result 10.00

----------
- Test System: Cdk13/CycK (Homo sapiens)
- Construct: The kinase domain of human Cdk13 (residues 694–1039, UniProt Q14004); made in house; host or cells: Sf9 insect cells, co-expressed with CAK1
- Sequence (Q14004 694-1039): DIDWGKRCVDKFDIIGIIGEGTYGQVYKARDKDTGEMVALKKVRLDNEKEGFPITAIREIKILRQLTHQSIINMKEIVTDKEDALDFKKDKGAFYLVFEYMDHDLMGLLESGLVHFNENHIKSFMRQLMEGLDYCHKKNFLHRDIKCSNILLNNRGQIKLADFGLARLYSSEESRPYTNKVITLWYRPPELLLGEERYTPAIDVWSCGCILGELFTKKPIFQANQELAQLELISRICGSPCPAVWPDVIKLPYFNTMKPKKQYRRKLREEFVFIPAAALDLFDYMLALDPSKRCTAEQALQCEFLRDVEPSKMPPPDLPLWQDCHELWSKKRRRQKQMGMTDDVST
- Sequence (O75909 1-267 partner limits assumed): as the sequence (O75909 1-267 partner limits assumed) above
- Protocol Text: radioactive in vitro kinase assay, Cdk13/CycK
- Assay type: biochemical
- Measurement Conditions: 0.2 μM and 0.02 μM kinase, c-Myc substrate, Morrison quadratic equation fit; read-out: IC50 Cdk13/CycK, Morrison quadratic equation
- Experimental: To a concentration of 0.2 μM kinase and 0.2 mM ATP, a compound concentration ranging from 0.1 nM to 1 mM was applied. […] In vitro IC50-values were determined by applying a sigmoidal fit to dose-response measurements (Fig. 1A). […] The Michaelis–Menten constants (KM) for ATP were determined as 17.5 μM for Cdk12/CycK and 12.6 μM for Cdk13/CycK, respectively. […]
Readout Type: IC50

// query Param readout= IC50; system= Cdk13/CycK (Homo sapiens); entry= Cn1cc(-n2cnc3c(NCc4nc5cc(Cl)c(Cl)cc5[nH]4)nc(N4CCOCC4)nc32)cn1 ; returns value.
// result 366 to 400 nM
